Molecular target: BCL-XL (Homo sapiens, UniProt Q07817)
Construct: endogenous in cells; host or cells: MOLT-4
Sequence (Q07817 whole entry): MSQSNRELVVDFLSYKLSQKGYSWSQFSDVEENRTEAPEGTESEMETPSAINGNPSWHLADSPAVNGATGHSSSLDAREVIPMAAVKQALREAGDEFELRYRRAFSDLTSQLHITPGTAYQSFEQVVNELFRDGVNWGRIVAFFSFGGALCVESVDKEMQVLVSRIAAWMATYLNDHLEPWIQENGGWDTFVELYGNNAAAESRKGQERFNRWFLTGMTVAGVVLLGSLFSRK
Experiment: BCL-XL degradation assay, western blot in MOLT-4 cells, 16 h
Type: cell-based
Conditions: western blot, MOLT-4 cells, 16 h; read-out: Bcl-xL WB in MOLT-4 degradation 16 h: Mean external-Abs DC50
assay_readout: DC50

Would you please look over these solved cases?
| compound_structure | assay_system | assay_readout | val |
| --- | --- | --- | --- |
| Cc1ncsc1-c1ccc(CNC(=O)[C@@H]2C[C@@H](O)CN2C(=O)[C@H](c2cc(OCCCCCCCCC(=O)N(C)CC#Cc3ccc(OCCCc4ccc(N5CCc6cccc(C(=O)Nc7nc8ccccc8s7)c6C5)nc4C(=O)O)c(F)c3)no2)C(C)C)cc1 | BCL-XL (Homo sapiens, UniProt Q07817) | DC50 | < 10 nM |
| Cc1ncsc1-c1ccc(CNC(=O)[C@@H]2C[C@@H](O)CN2C(=O)[C@@H](c2cc(N3CC4(CN(CCCC(=O)N(C)CC#Cc5ccc(OCCCc6ccc(N7CCc8cccc(C(=O)Nc9nc%10ccccc%10s9)c8C7)nc6C(=O)O)c(F)c5)C4)C3)no2)C(C)C)cc1 | BCL-XL (Homo sapiens, UniProt Q07817) | DC50 | > 1000 nM |
| Cc1cc(N(CCN(C)C(=O)CCCOc2cc(-c3scnc3C)ccc2CNC(=O)[C@@H]2C[C@@H](O)CN2C(=O)[C@@H](NC(=O)C2(F)CC2)C(C)(C)C)c2ccc(-c3cnn(CC4CCCCC4)c3C)c(C(=O)O)n2)nnc1Nc1nc2ccccc2s1 | BCL-XL (Homo sapiens, UniProt Q07817) | DC50 | > 1000 nM |

Moving on to another compound below.
## Input I am curious: what DC50 value has been reported for Cc1ncsc1-c1ccc([C@H](CC(=O)N(C)CC(=O)N2CCN(CC[C@H](CSc3ccccc3)Nc3ccc(S(=O)(=O)NC(=O)c4ccc(N5CCN(CC6=C(c7ccc(Cl)cc7)CCC(C)(C)C6)CC5)cc4)cc3S(=O)(=O)C(F)(F)F)CC2)NC(=O)[C@@H]2C[C@@H](O)CN2C(=O)[C@@H](NC(=O)C2(F)CC2)C(C)(C)C)cc1 ?
## Output > 1000 nM

* * *

Target: BCL-XL (Homo sapiens)
Construct: endogenous in cells; host or cells: MOLT-4
Experiment: Bcl-xL ELISA degradation in MOLT-4 cells, 6 h
Type: cell-based
Conditions: read-out: Bcl-xL ELISA in MOLT-4 degradation 6 h: Mean external-Abs DC50
Method: The letter codes for BCL-XL DC50 include: A (<0.01 μM); B (0.01-0.1 μM); C (>[…]); D (>0.5-1.0 μM); and E (>1.0 μM). The letter codes for Dmax % include A (>75%); B (50 to 75%); C (<50%).
assay_readout: DC50

Would you please look over these solved cases?
| molecule | DC50 |
| --- | --- |
| Cc1ncsc1-c1ccc([C@H](C)NC(=O)[C@@H]2C[C@@H](O)CN2C(=O)[C@@H](NC(=O)C2CCN(c3ccc(S(=O)(=O)NC(=O)c4nc(N5CCc6cccc(C(=O)Nc7nc8ccccc8s7)c6C5)ccc4-c4cnn(CC5CCCCC5)c4C)cc3F)CC2)C(C)(C)C)cc1 | 10 to 100 nM |
| C#Cc1ccc([C@H](C)NC(=O)[C@@H]2C[C@@H](O)CN2C(=O)[C@@H](NC(=O)CCCCCS(=O)(=O)NC(=O)c2nc(N3CCc4cccc(C(=O)Nc5nc6cccnc6s5)c4C3)ccc2-c2cnn(CC3CCCCC3)c2C)C(C)(C)C)c(OCCO)c1 | < 10 nM |
| Cc1ncsc1-c1ccc(CNC(=O)[C@@H]2C[C@@H](O)CN2C(=O)[C@@H](NC(=O)C2(F)CC2)C(C)(C)C)c(OC2CCN(CCNC(=O)c3nc(N4CCc5cccc(C(=O)Nc6nc7ccccc7s6)c5C4)ccc3-c3cnn(CC4CCCCC4)c3C)CC2)c1 | 100 to 500 nM |
| Cc1ncsc1-c1ccc(CNC(=O)N2C[C@@H](O)CC2C(=O)[C@@H](NC(=O)C2(F)CC2)C(C)(C)C)c(O[C@H]2C[C@H](N3CCC(NC(=O)c4nc(N5CCc6cccc(C(=O)Nc7nc8ccccc8s7)c6C5)ccc4-c4cnn(CC5CCCCC5)c4C)CC3)C2)c1 (stereo partly drawn) | > 1000 nM |
| Cc1ncsc1-c1ccc([C@H](C)NC(=O)[C@@H]2C[C@@H](O)CN2C(=O)[C@@H](NC(=O)CCCCCS(=O)(=O)NC(=O)c2nc(N3CCc4cccc(C(=O)Nc5nc6ccccc6s5)c4C3)ccc2-c2cnn(CC3CCCC3)c2C)C(C)(C)C)cc1 | 10 to 100 nM |
| Cc1cc(N(C)c2ccc(-c3cnn(CC45CC6CC(CC(C6)C4)C5)c3C)c(C(=O)NS(=O)(=O)c3ccc(N4CCC(C(=O)N[C@H](C(=O)N5C[C@H](O)C[C@H]5C(=O)N[C@@H](C)c5ccc(-c6scnc6C)cc5)C(C)(C)C)CC4)cc3)n2)nnc1Nc1nc2ccccc2s1 | 10 to 100 nM |

## Input I am curious: what DC50 value has been reported for Cc1cc(N(C)c2ccc(-c3cnn(CC4CCCCC4)c3C)c(C(=O)NS(=O)(=O)c3ccc(N4CCC(C(=O)N[C@H](C(=O)N5C[C@H](O)C[C@H]5C(=O)N[C@@H](C)c5ccc(-c6scnc6C)cc5)C(C)(C)C)CC4)cc3)n2)nnc1Nc1nc2ccccc2s1 ?
## Output 10 to 100 nM

## Input I am curious: what DC50 value has been reported for Cc1cnc(NC(=O)c2cccc3c2CN(c2ccc(-c4cnn(CC5CCCCC5)c4C)c(C(=O)NS(=O)(=O)CCCCCC(=O)N[C@H](C(=O)N4C[C@H](O)C[C@H]4C(=O)N[C@@H](C)c4ccc(-c5scnc5C)cc4)C(C)(C)C)n2)CC3)s1 ?
## Output 10 to 100 nM

## Input I am curious: what DC50 value has been reported for Cc1ncsc1-c1ccc(CNC(=O)[C@@H]2C[C@@H](O)CN2C(=O)[C@H](c2cc(N3CC4(CN(CCCC(=O)N(C)CC#Cc5ccc(OCCCc6ccc(N7CCc8cccc(C(=O)Nc9nc%10ccccc%10s9)c8C7)nc6C(=O)O)c(F)c5)C4)C3)no2)C(C)C)cc1 ?
## Output 10 to 100 nM

## Input I am curious: what DC50 value has been reported for Cc1ncsc1-c1ccc(CNC(=O)[C@@H]2C[C@@H](O)CN2C(=O)[C@@H](NC(=O)C2(F)CC2)C(C)(C)C)c(OCC2CCN(CC[C@H](CSc3ccccc3)Nc3ccc(S(=O)(=O)NC(=O)c4ccc(N5CCN(CC6=C(c7ccc(Cl)cc7)CCC(C)(C)C6)CC5)cc4)cc3S(=O)(=O)C(F)(F)F)CC2)c1 ?
## Output > 1000 nM

## Input I am curious: what DC50 value has been reported for Cc1ncsc1-c1ccc(CNC(=O)[C@@H]2C[C@@H](O)CN2C(=O)[C@@H](NC(=O)CCCc2cccc(S(=O)(=O)NC(=O)c3nc(N4CCc5cccc(C(=O)Nc6nc7ccccc7s6)c5C4)ccc3-c3cnn(CC4CCCCC4)c3C)c2)C(C)(C)C)cc1 ?
## Output < 10 nM

## Input I am curious: what DC50 value has been reported for Cc1cc(S(=O)(=O)NC(=O)c2nc(N3CCc4cccc(C(=O)Nc5nc6ccccc6s5)c4C3)ccc2-c2cnn(CC3CCCCC3)c2C)ccc1N1CCC(C(=O)N[C@H](C(=O)N2C[C@H](O)C[C@H]2C(=O)N[C@@H](C)c2ccc(-c3scnc3C)cc2)C(C)(C)C)CC1 ?
## Output < 10 nM

## Input I am curious: what DC50 value has been reported for Cc1ncsc1-c1ccc([C@H](C)NC(=O)[C@@H]2C[C@@H](O)CN2C(=O)[C@@H](NC(=O)C2CCN(c3ccc(S(=O)(=O)NC(=O)c4nc(N5CCc6cccc(C(=O)Nc7nc8ccccc8s7)c6C5)ccc4-c4cnn(CC5(CCCN6CCN(C)CC6)CCCCC5)c4C)cc3)CC2)C(C)(C)C)cc1 ?
## Output 100 to 500 nM

## Input I am curious: what DC50 value has been reported for Cc1ncsc1-c1ccc([C@H](C)NC(=O)[C@@H]2C[C@@H](O)CN2C(=O)[C@H](NC(=O)CCCCCCCS(=O)(=O)NC(=O)c2nc(N3CCc4cccc(C(=O)Nc5nc6ccccc6s5)c4C3)ccc2-c2cnn(CC34CC5CC(CC(C5)C3)C4)c2C)C(C)(C)C)cc1 ?
## Output < 10 nM

## Input I am curious: what DC50 value has been reported for Cc1ncsc1-c1ccc([C@H](C)NC(=O)[C@@H]2C[C@@H](O)CN2C(=O)[C@@H](NC(=O)C2CCN(C3CCN(S(=O)(=O)NC(=O)c4nc(N5CCc6cccc(C(=O)Nc7nc8ccccc8s7)c6C5)ccc4-c4cnn(CC5CCCCC5)c4C)CC3)CC2)C(C)(C)C)cc1 ?
## Output 100 to 500 nM
